Recorded values, source BindingDB's records for doi:10.1021/acs.jmedchem.8b01394.

# protocol-notes: Inhibition of RSV Long fusion protein assessed as protection against virus induced cytopathic effect in infected human Hep2 cells after 5 days by CCK8 assay

{"compound": "NCCNc1cc(N2CCCc3ccccc3C2)nc2ccc(F)cc12", "unit-abbreviation": "nM", "qualifier-operator": "=", "EC50": 1500}
{"compound": "NCCNc1cc(N2CCOc3ccccc3C2)nc2ccccc12", "unit-abbreviation": "nM", "qualifier-operator": "=", "EC50": 230}
{"compound": "COc1ccc2nc(N3CCCc4ccccc4C3)cc(NCCN)c2c1", "unit-abbreviation": "nM", "qualifier-operator": "=", "EC50": 320}
{"compound": "Cc1ccc2nc(N3CCS(=O)(=O)c4ccccc4C3)cc(NCCN)c2c1", "unit-abbreviation": "nM", "qualifier-operator": "=", "EC50": 4}
{"compound": "Cc1ccc2nc(N3CCCc4ccc(F)cc4C3)cc(NCCN)c2c1", "unit-abbreviation": "nM", "qualifier-operator": "=", "EC50": 100}
{"compound": "NCC(O)CNc1cc(N2CCCc3ccccc3C2)nc2ccccc12 (stereo not given)", "unit-abbreviation": "nM", "qualifier-operator": "=", "EC50": 220}
{"compound": "Cc1ccc2nc(N3CCS(=O)(=O)c4ccccc4C3)cc(NCCCCCN)c2c1", "unit-abbreviation": "nM", "qualifier-operator": "=", "EC50": 27}
{"compound": "Cc1ccc2nc(N3CCNc4ccccc4C3)cc(NCCN)c2c1", "unit-abbreviation": "nM", "qualifier-operator": "=", "EC50": 230}
{"compound": "N=C(N)NCCNc1cc(N2CCc3ccccc3C2)nc2ccccc12", "unit-abbreviation": "nM", "qualifier-operator": "=", "EC50": 2300}
{"compound": "NCCNc1cc(N2CCCc3ccccc3C2)nc2ccc(Cl)cc12", "unit-abbreviation": "nM", "qualifier-operator": "=", "EC50": 120}
{"compound": "Cc1ccc2nc(N3CCCc4ccccc4C3)cc(NCCN)c2c1", "unit-abbreviation": "nM", "qualifier-operator": "=", "EC50": 73}
{"compound": "Cc1ccc2nc(N3CCCc4cc(F)ccc4C3)cc(NCCN)c2c1", "unit-abbreviation": "nM", "qualifier-operator": "=", "EC50": 460}
{"compound": "NCCNc1cc(N2CCCc3ccccc3C2)nc2ccc(C(F)(F)F)cc12", "unit-abbreviation": "nM", "qualifier-operator": "=", "EC50": 1100}
{"compound": "NCCNc1cc(N2CCCc3ccccc3C2)nc2cccc(Cl)c12", "unit-abbreviation": "nM", "qualifier-operator": "=", "EC50": 6600}
{"compound": "NCCCCNc1cc(N2CCc3ccccc3C2)nc2ccccc12", "unit-abbreviation": "nM", "qualifier-operator": ">", "EC50": 100000}
{"compound": "NCCNc1cc(N2CCCc3ccccc3C2)nc2c(Cl)cccc12", "unit-abbreviation": "nM", "qualifier-operator": "=", "EC50": 1100}
{"compound": "OCC(O)CNc1cc(N2CCc3ccccc3C2)nc2ccccc12 (stereo not given)", "unit-abbreviation": "nM", "qualifier-operator": "=", "EC50": 22000}
{"compound": "NCC(O)CNc1cc(N2Cc3ccccc3C2)nc2ccccc12 (stereo not given)", "unit-abbreviation": "nM", "qualifier-operator": ">", "EC50": 100000}
{"compound": "NCCNc1cc(N2CCCc3ccccc3C2)nc2cc(Cl)ccc12", "unit-abbreviation": "nM", "qualifier-operator": ">", "EC50": 3200}
{"compound": "NCCCNc1cc(N2CCc3ccccc3C2)nc2ccccc12", "unit-abbreviation": "nM", "qualifier-operator": "=", "EC50": 7800}
